System tested: T1, HTRA3, P83110
T1 sequence (P83110 354-453, limits assumed, looked up): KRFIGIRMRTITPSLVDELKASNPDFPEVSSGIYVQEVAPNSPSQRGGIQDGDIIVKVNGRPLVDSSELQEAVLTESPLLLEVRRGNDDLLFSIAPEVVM
Assay explanation: holdup assay
Set-up: key: below the threshold = too weak to quantify, mostly under pKd 3.1 to 4
Assay context: plain residues with an end cap or a label only (N-terminal biotin on a linker: ado-ado)
Attribute measured: pKd

INSERT INTO measurements (binder, result) VALUES
  ('RFQQRMQTHV [KIRREL1, Q96J84]', 'below the threshold'),
  ('EIPAQSPTCV [FZD10, Q9ULW2]', 3.95),
  ('LAHVKHKEQI [AQP3, Q92482]', 'below the threshold'),
  ('ELSATVTTDC [TRIP6, Q15654]', 4.04),
  ('AQRARSPSDV [GPR12, P47775]', 'below the threshold'),
  ('DDASLPVSDV [PLEKHA1, Q9HB21]', 'below the threshold'),
  ('PTPDLPQTRV [KLHDC7A, Q5VTJ3]', 'below the threshold'),
  ('NIAESLESLV [PTPRZ1, P23471]', 'below the threshold'),
  ('DTKNYKQTSV [CRIPT, Q9P021]', 'below the threshold'),
  ('MQHQRTHTRV [ZSCAN30, Q86W11]', 'below the threshold'),
  ('VLYPREGTEV [FOXI1, Q12951]', 'below the threshold'),
  ('SPDRDRESIV [SCN5A, Q14524]', 'below the threshold'),
  ('NNNVVKVDSV [MTNR1A, P48039]', 'below the threshold'),
  ('QKAPTKEFYA [SDC2, P34741]', 4.31),
  ('KKMLQRRTLL [OR8G1, Q15617]', 'below the threshold'),
  ('ARSAAASNYV [CLDN4, O14493]', 4.15);
